- SYSTEM_NAME: Virion infectivity factor (Human immunodeficiency virus type 1 group M subtype B (isolate BH10)) + Virion infectivity factor (Human immunodeficiency virus type 1 group M subtype B (isolate BRU/LAI)) + Virion infectivity factor (Human immunodeficiency virus type 1 group M subtype B (isolate PCV12)) + Virion infectivity factor (Human immunodeficiency virus type 1 group M subtype B (isolate HXB2)) + DNA dC->dU-editing enzyme APOBEC-3G (Homo sapiens) (UniProt P69720+P69721+P69722+P69723+Q9HC16)
- ASSAY_DETAILS: inhibitors of Vif binding to APOBEC3G peptide, primary screen, biochemical, TR-FRET, GST-Vif 1-94, biotin-A3G peptide, dose response retest (AID 1117319);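 note: Vif residues 1-94 fused to GST binding biotinylated APOBEC3G peptide 110-148; 0% = full assay without inhibitor and 100% = GST in place of GST-Vif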
- CONDITION_NOTES: active compounds read high
Screen size: about 260,000 compounds; about 1,500 (0.58%) were called active. Not shown: some 5% with an inconclusive outcome. The list is a sample of the results. Potency and affinity values are given separately.
// reported inhibition per item
Answer in %, number only, no unit symbol.

Determine from records and report inhibition for C/C(=N\Oc1cccc(F)n1)c1ccc(Cl)cc1Cl
-2.41

Determine from records and report inhibition for CN(C)N1C(N)=C(C#N)C(c2cccnc2)C2=C1CC(C)(C)CC2=O (stereo unspecified)
-8.23

Determine from records and report inhibition for COc1cc(C(=O)Oc2ccccc2N)cc(OC)c1OC
-1.18

Determine from records and report inhibition for COc1cc(C2C(C#N)=C(N)N(N(C)C)C3=C2C(=O)CCC3)ccc1O (stereo unspecified)
3.96

Determine from records and report inhibition for CC1=C(C(=O)Nc2ccccc2)C(c2ccco2)NC(=O)N1 (stereo unspecified)
-0.31

Determine from records and report inhibition for O=c1oc2ccc([N+](=O)[O-])cc2c(N2CCOCC2)c1[N+](=O)[O-]
-2.71

Determine from records and report inhibition for Cc1ccc(C2C(C#N)=C(N)N(c3cccnc3)C3=C2C(=O)CCC3)c(C)c1 (stereo unspecified)
-5.44

---

// reported inhibition per item
- SYSTEM_NAME: Virion infectivity factor (Human immunodeficiency virus type 1 group M subtype B (isolate BH10)) + Virion infectivity factor (Human immunodeficiency virus type 1 group M subtype B (isolate BRU/LAI)) + Virion infectivity factor (Human immunodeficiency virus type 1 group M subtype B (isolate PCV12)) + Virion infectivity factor (Human immunodeficiency virus type 1 group M subtype B (isolate HXB2)) + DNA dC->dU-editing enzyme APOBEC-3G (Homo sapiens) (UniProt P69720+P69721+P69722+P69723+Q9HC16)
- ASSAY_DETAILS: inhibitors of Vif binding to APOBEC3G peptide, primary screen, biochemical, TR-FRET, GST-Vif 1-94, biotin-A3G peptide, dose response retest (AID 1117319);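 note: Vif residues 1-94 fused to GST binding biotinylated APOBEC3G peptide 110-148; 0% = full assay without inhibitor and 100% = GST in place of GST-Vif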
- CONDITION_NOTES: active compounds read high
Hit rate of the full screen: of about 260,000 compounds, about 1,500 (0.58%) were called active. About 5% were inconclusive and are not listed. Not all results are given here. Entries with a potency or affinity are not part of this list.
Answer in %, number only, no unit symbol.

Cc1ccc2c(c1)[C@H]1OCC[C@H]1[C@@H](c1ccncc1)N2 | 27.8
O=C(N/N=C/C(Br)=C\c1ccccc1)c1ccco1 | 8.5
CCN(CC)c1ccc(C=Nc2ccccc2C)c(O)c1 | -5.2
COc1ccc(OCCSc2ncccn2)cc1 | -7.11
COc1ccc(NC(=O)C(NC(C)=O)C(=O)NCc2ccccc2)cc1 (stereo not given) | 2.8
COc1ccc(O)c(C(=O)c2cnn(S(=O)(=O)c3ccc(C)cc3)c2)c1 | 4.82
CC1(C)CC(=O)C2=C(C1)NCN(Cc1ccccc1)C2 | 0.39
COc1ccc2c(c1)CCCC(Br)C2=O (stereo not given) | 11.8
CC(=C\c1ccccc1)/C=C1/SC(=S)N(C(C(=O)O)C(C)C)C1=O (stereo not given) | -2.28
CCN(C(=O)c1ccc(Cl)c([N+](=O)[O-])c1)c1ccccc1 | 3.48

Determine from records and report inhibition for CCOC(=O)c1ccc(NC(=O)C(=O)NCc2ccc(/C=C(/C#N)C(=O)NCCOC)o2)cc1
-2.3

Determine from records and report inhibition for CCOC(=O)C1=C(O)/C(=C\c2cccs2)N=C1C
15.1

Determine from records and report inhibition for O=C1CSc2ccc(C(=O)O)cc2N1
10.3

Determine from records and report inhibition for Cc1cc(C(=O)O)ccc1N/C=C1\CCCC(C)C1=O (stereo not given)
10.9

Determine from records and report inhibition for CC1=C(C(=O)N(C)C)C(c2cccs2)NC(=O)N1 (stereo not given)
4.4

Determine from records and report inhibition for CCN(CC(=O)Nc1ccc(NC(C)=O)cc1)C(=O)c1ccc(N2CCC(C)CC2)c([N+](=O)[O-])c1
3.59

Determine from records and report inhibition for COc1ccc(CN2C(=O)c3cccnc3C2=O)cc1S(=O)(=O)N1CCCCC1C (stereo not given)
1.43

Determine from records and report inhibition for CCN(CC)c1ccc(C=Nc2ccccc2)c(O)c1
29.3

Determine from records and report inhibition for COc1ccc(C(=O)N(C)C(C)c2nccs2)cc1OC1CCN(C(C)=O)CC1 (stereo not given)
-6.6

Determine from records and report inhibition for Cc1nn(-c2cccc(Cl)c2)nc1C(=O)Nc1cccc(C(=O)NC2CC2)c1
-8.35
